We begin with a simple list: items and their reported cytotoxicity at 10 µM.
# ASSAY_NOTES: Toxicity liver stage against HepG2, at 10uM
# Assay type: cell-based
# Design: test concentration 10 uM, cell line HepG2-A16-CD81EGFP
# MEASUREMENT_PARAMETERS: human, HepG2-A16-CD81EGFP cells; read-out: INHIBITION
TEST_READOUT: cytotoxicity at 10 µM (%)

>>> print(df.to_string())
                                    compound  unit_tag  result_value
 0  Cc1c(CN(C)c2cc(C3CCCNC3)ncn2)[nH]c2ccccc12 (centres undefined)         %          1.99
 1  CNC(=O)[C@@H](C)NC(=O)c1cc(-c2ccc(F)cc2)c(C)s1         %          -5.2
 2     CN1CCN(Cc2cnc3n2CCN(CCc2ccccc2)C3)CC1         %         -6.98
 3  CC(C)C(NC(=O)c1cnc(N2CCOCC2)nc1)c1cccs1 (centres undefined)         %          9.71
 4  COCCN1CCC2(COCCN(C(=O)Cc3cccs3)C2)C1 (centres undefined)         %          4.29
 5   O=C(c1cscn1)N1CCC2(CCN(Cc3nccs3)CC2)CC1         %           -71
 6  O=S(=O)(Cc1ccccc1CN1CC[C@H](CO)[C@H](O)C1)c1ccccc1         %         -18.2
 7  CN(C)CCN1CC(C(=O)NCc2cn3cccnc3n2)CC1=O (centres undefined)         %         -4.29
 8  CCSCc1ccnc(NC(=O)C2CCOC2)c1 (centres undefined)         %         0.841
 9   CN1N=C(C(=O)N2CCN(c3ncccc3Cl)CC2)CCC1=O         %        0.0793
10  O=C(NCC1CCS(=O)(=O)C1)N(Cc1ccco1)C1CC1 (centres undefined)         %          -136
11  CCN1CC2(CC1=O)CN(C(=O)NC(C)C)CCN(S(C)(=O)=O)C2 (centres undefined)         %         -3.67
12  Cc1nn(C)c(C)c1-c1cnc(C2CCCN(S(C)(=O)=O)C2)cn1 (centres undefined)         %         -11.3
13  CNc1ncccc1CN1CCCCC1c1ccnc(N)n1 (centres undefined)         %         -12.3
14  O=C(c1cccc(O)n1)N1CCC(O)(CN2CCC(F)(F)CC2)C1 (centres undefined)         %          4.16
15   Cc1nccc(NCc2cncc3c2CCN(S(C)(=O)=O)C3)n1         %         -99.4
16       CC(C)c1nnc(NC(=O)Cc2ccc(F)cc2)[nH]1         %            -8
17  Cc1nc(C)n(CC2CN(Cc3cccc(C#N)c3)CCO2)n1 (centres undefined)         %         -10.3
18     Cc1cccc(Nc2c(C#N)c(=O)n(C)c(=O)n2C)c1         %         -7.48
19  COc1ccccc1-c1cc(C(=O)N2CCCC2)c2cnn(C)c2n1         %           9.4
20   Cc1occc1C(=O)N1CCC2(CCN(Cc3nccs3)C2)CC1         %         -12.5
21       COCCN(Cc1cccnc1)c1nc(C)nc2oc(C)nc12         %         -44.1
22   O=C(c1ccccc1)N1CCCN(C(=O)c2ncncc2Cl)CC1         %          4.26
23  Cc1cnc(N2CC(C(=O)N3CCOCC3)C3(CCOCC3)C2)nc1 (centres undefined)         %          4.47
